testSystem: T1, canine FcRn (UniProtKB-E2ROL6 [FcRn] and UniProtKB-E2RN10 [canine beta-2-microglobulin]) (canine)
T1 construct: Soluble analyte injected in SPR
assaySummary: SPR Biacore 8K, pH 5.5, Fc captured on BSA via SASA tag, FcRn 100-800 nM
outcomeMeasure: pKd
Scale for pKd: -log10 of concentration given in mol/L; no unit attached.

The examples below pair each entry with its known result.
canine IgG.B Fc (CH2-CH3) variant N434H (Fc fusion) APEMLGGPSVFIFPPKPKDTLLIARTPEVTCVVVDLDPEDPEVQISWFVDGKQMQTAKTQPREEQFNGTYRVVSVLPIGHQDWLKGKQFTCKVNNKALPSPIERTISKARGQAHQPSVYVLPPSREELSKNTVSLTCLIKDFFPPDIDVEWQSNGQQEPESKYRTTPPQLDEDGSYFLYSKLSVDKSRWQRGDTFICAVMHEALHHHYTQESLSHSPGK
6.61
canine IgG.B Fc (CH2-CH3) variant L252Y (Fc fusion) APEMLGGPSVFIFPPKPKDTLYIARTPEVTCVVVDLDPEDPEVQISWFVDGKQMQTAKTQPREEQFNGTYRVVSVLPIGHQDWLKGKQFTCKVNNKALPSPIERTISKARGQAHQPSVYVLPPSREELSKNTVSLTCLIKDFFPPDIDVEWQSNGQQEPESKYRTTPPQLDEDGSYFLYSKLSVDKSRWQRGDTFICAVMHEALHNHYTQESLSHSPGK
6.76

Now examine the next entry.
Query block: // lookup pKd for canine IgG.B Fc (CH2-CH3) variant N434W (Fc fusion) APEMLGGPSVFIFPPKPKDTLLIARTPEVTCVVVDLDPEDPEVQISWFVDGKQMQTAKTQPREEQFNGTYRVVSVLPIGHQDWLKGKQFTCKVNNKALPSPIERTISKARGQAHQPSVYVLPPSREELSKNTVSLTCLIKDFFPPDIDVEWQSNGQQEPESKYRTTPPQLDEDGSYFLYSKLSVDKSRWQRGDTFICAVMHEALHWHYTQESLSHSPGK
Result block: 7.00
